Tested on: PPARg:RXRa DBDmut IVT, anti-RXR (DBD mutation: RXRa K156A/R161A, NR concentration 270 nM, RXRa partner concentration 90 nM)
ASSAY INFO: PBM binding z-score (relative to random genomic background probes); higher = stronger binding; sequences stand for … in GC…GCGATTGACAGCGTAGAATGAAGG
Lab note: compare PBM binding z-score against 2. Equal or greater, write Met. Smaller, write Not met.

Example cases with answers are listed next.
QUERY SEQUENCE	CLASS ASSIGNMENT
TCTAGTTGGTCAGAGGTCACACACTCGAAATGCG	Met
AGAATGAGTTTATTAAGATCAGGGAATTGCGGTC	Not met
AGTCAAAGTTCACTAGGTCACGTAAGATTCAGCT	Met
CGAACTAGGTCAAGAACAGTGAATCTCCGCACGC	Met
CAAACTAGGTCACGGAAGGTCAAAGTCGAATGAC	Met

Given the entry CGTCCACGGTCAAGGTCAGTGAAAGAGACTCGAA , answer whether its PBM binding z-score meets or surpasses 2. Not met

Given the entry CAAACTAGGTCAAGAGGTCAAAGTACGCTTCCCG , answer whether its PBM binding z-score meets or surpasses 2. Met

Given the entry TCACATAGGTAAATGCTAGGTGAAAGTCCGATCT , answer whether its PBM binding z-score meets or surpasses 2. Met

Given the entry CAAACTAGGTCAAAGGCCAAAGTCGAGCCAACCA , answer whether its PBM binding z-score meets or surpasses 2. Met

Given the entry CCTCGGAGGAAAGAAGGTCAGAGCTGTCCGCTTT , answer whether its PBM binding z-score meets or surpasses 2. Not met

Given the entry AGAACGAGGGCACGCTGAGTCGATAGCAGAGTAG , answer whether its PBM binding z-score meets or surpasses 2. Met

Given the entry ACAGACAGGTGAATGAAGGTAACTCAGCTGGACG , answer whether its PBM binding z-score meets or surpasses 2. Not met

Given the entry CCGACTGGGGCAAGGTTACCACAACGCACAGCCA , answer whether its PBM binding z-score meets or surpasses 2. Met

Given the entry TCGAGTAGGTTACCAATAGGGCATTCAGCTTTCT , answer whether its PBM binding z-score meets or surpasses 2. Met

Given the entry GCTATCAGGCCATTTGGGTCACTCAATGACGGGC , answer whether its PBM binding z-score meets or surpasses 2. Met

Given the entry CCTACTGGGCCATCACGTCATTGATATCAACGTT , answer whether its PBM binding z-score meets or surpasses 2. Met

Given the entry CGAACTAGGTCATCAAGGACAGTGAATACATTGA , answer whether its PBM binding z-score meets or surpasses 2. Met

Given the entry CCTACTGGGCCAAAGTCATTGATCAGTCAAAGCA , answer whether its PBM binding z-score meets or surpasses 2. Met

Given the entry TCTTGTAGATCAGCAGGTTCAGAAAGCTGGCCAA , answer whether its PBM binding z-score meets or surpasses 2. Not met

Given the entry CGAACTAGGTCATCCAGGACAGAGAATACATTGA , answer whether its PBM binding z-score meets or surpasses 2. Met

Given the entry TAGCCTAGGTCATGGGCCAGTACACCACGCGAAC , answer whether its PBM binding z-score meets or surpasses 2. Not met

* * *

Test system: VDR:RXRa (NR concentration 270 nM, RXRa partner concentration 90 nM)
ASSAY INFO: PBM binding z-score (relative to random genomic background probes); higher = stronger binding; sequences stand for … in GC…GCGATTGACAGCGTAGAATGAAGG
Lab note: compare PBM binding z-score against 0.1. Equal or greater, write true (1). Smaller, write false (0).

QUERY SEQUENCE	CLASS ASSIGNMENT
ATGTCTAGGTAAGACTCAGTTCAGTGAAGAACGC	true (1)
TCATATAGGCAAAAGGTGAAAGTCGGTGTGGTAA	true (1)
ACAGACATGTGAGTGAAGGTAACTCAGCTGGACG	false (0)
CAAACTAGGTGAAGAGGTCAAAGTCCGCTTCCCG	true (1)
AGTCAATGTTCACTAGGTAACGTAAGATTCAGCT	false (0)

Given the entry TCTGCTAGGTCAGCGATGGTCAGCTAATCTGCTA , answer whether its PBM binding z-score meets or surpasses 0.1. true (1)

* * *

Tested on: PPARg DBDmut IVT, anti-PPARg (DBD mutation: PPARg1 K132A/R137A, NR concentration 270 nM)
ASSAY INFO: PBM binding z-score (relative to random genomic background probes); higher = stronger binding; sequences stand for … in GC…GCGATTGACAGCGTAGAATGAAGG
Below: a set of entries, each annotated with reported PBM binding z-score.

// known answers, use as guide
QUERY SEQUENCE	RESULT
CCGTCTGGGGCAGAAAGGTTACCATACCATCCGG	-1.86
CGAACTAGGTCACTGACAGGACAGTGAATAGTAA	0.583
ATCTCTAGGTAAAGATAGTTCAGAGAATGCAAAT	1.54
CCTACTGGGCCAAAGGTCATGGATTCCAATGCTC	-0.578
AGAACGAGTGCACGCTGAGTTGATAGCAGAGTAG	-0.145
CCGAGTGGGGCAAAGGTTACCATACTCAGTACGA	-0.366
CCTTACGGGTTACTGACAGGTTATAGCATTTGGA	-0.367
ATCTCTAGGTAAAATTTCAGTGAATCCCGAGGAT	1.87
CCTAGTTTGTCAAGGTCACACACGCTATAGGTAC	1.48
GTAACAAGGTGAATAGGTCGTTGATGAGTAGGCG	0.585

Given the entry GATACAGGGTCAAGGGCAGAGTACGCGTATTGAT , report its measured PBM binding z-score. 0.413

Given the entry TTAGCAAGGTGAAAGGTCGTTGATGCACGCCTTG , report its measured PBM binding z-score. -0.113

Given the entry CTACGAAGGTGAACAAGGTCGTTGATTACTATTC , report its measured PBM binding z-score. 0.389

Given the entry TCTTGTAGATCAAGCAGGTAAAGAAAGCCTGAGT , report its measured PBM binding z-score. 0.0829

Given the entry TCGAGTAGGTTAGGGGCAGTCAGAATGGCGTCGA , report its measured PBM binding z-score. -0.988

Given the entry ATACCAAGGTGATCGTGAGGTCGTTGAGACTAAC , report its measured PBM binding z-score. -0.217

Given the entry CTACCAAGGTGAACAAGGTCGTTGAGTACTATTC , report its measured PBM binding z-score. -0.624

Given the entry GCAGACAGGTGCAACGCAGGTAACTCAGGGTGGC , report its measured PBM binding z-score. -1.51

Given the entry GGTACGAGGGCATTCGAGTTGATAGCATGGCGAT , report its measured PBM binding z-score. -0.67

Given the entry CTCGAAAGGTCGTGCTCAGTTGAGTATACCAAAC , report its measured PBM binding z-score. 0.182

Given the entry TCTAGTTGGTCACGGACGTCACACACGACGGGTA , report its measured PBM binding z-score. 1.25

Given the entry CCGACTGGTGCAGAAAGGTTACCATACCATCCGG , report its measured PBM binding z-score. -1.11

Given the entry CCTACTGGGCCAAAAAGGTCATTGAAGCCGATAA , report its measured PBM binding z-score. -0.851

Given the entry AGAACGAGGGCAATGAGTTGATATCACGGGTGGC , report its measured PBM binding z-score. -0.37

Given the entry CGAACTAGGTCATCCAGGACACTGAATACATTGA , report its measured PBM binding z-score. 1.12

Given the entry GCAGACAGGTGAAACGCAGGTAACTCAAGGTGGC , report its measured PBM binding z-score. -0.299

* * *

Tested on: RARa:RXR (NR concentration 270 nM, RXRa partner concentration 90 nM)
ASSAY INFO: PBM binding z-score (relative to random genomic background probes); higher = stronger binding; sequences stand for … in GC…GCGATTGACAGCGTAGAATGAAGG
Below: a set of entries, each annotated with reported PBM binding z-score.

// known answers, use as guide
QUERY SEQUENCE	TESTED SYSTEM	PBM binding z-score
ATATGTAGCTTAGCTGGGGTCATTCAGACTAGGC	RARa:RXR (NR concentration 270 nM, RXRa partner concentration 90 nM)	4.92
ACTAGCAGGCCAAGTTTGGTTCACTCAAACAAAG	RARa:RXR (NR concentration 270 nM, RXRa partner concentration 90 nM)	0.113
CAAACTAGTTCAAGGTCAAAGTCGGTTTGTGCCA	RARa:RXR (NR concentration 270 nM, RXRa partner concentration 90 nM)	5.1

Query PBM binding z-score on RARa:RXR (NR concentration 270 nM, RXRa partner concentration 90 nM) for CAAACTAGGTCATCCAGGACAGTGAATACATTGA 2.85

Query PBM binding z-score on RARa:RXR (NR concentration 270 nM, RXRa partner concentration 90 nM) for CCGACTGGGGCAGAAAGGTTAACATACCATCCGG 1.95

Where these numbers come from: the supplement of paper PMC6555819
